Task for the reader: assign each of the following compounds its reported Activity.
Test system: Rattus norvegicus
test name: Antidyslipidemic activity against triton-induced hyperlipidemia in Charles Foster rat assessed as reduction in plasma phospholipid level at 100 mg/kg, po after 18 hrs relative to control
Format: functional
Design: scale not given: the % may be the effect or the level left
Give bare numbers, in %.

Field: Activity. Fill in for each record below.
1. CCOC(=O)C1=C(C)N(c2ccc(Br)cc2)C=CC1c1ccccc1 (centres undefined)
2. CC1=C(C(=O)OC(C)(C)C)C(c2ccccc2)C=CN1c1ccccc1 (centres undefined)
3. COC(=O)C1=C(C)N(c2ccc(OC)cc2)C=C(C)C1c1ccccc1 (centres undefined)

12.5
12.8
15.3

For the compound COC(=O)C1=C(C)N(c2cccc(C)c2C)C=C(C)C1c1ccccc1 (centres undefined) , what Activity is on record?
23.9

====

test name: Antioxidant activity assessed as inhibition of microsomal lipid peroxidation at 200 ug/mL
Format: functional
Design: scale not given: the % may be the effect or the level left
Task for the reader: assign each of the following compounds its reported Activity.
Numbers only, in %.

As a guide, the following entries are already answered.
CCOC(=O)C1=C(C)N(c2ccc(C)cc2)C=CC1c1ccccc1 (stereo unspecified)    -38.4
COC(=O)C1=C(C)N(c2ccccc2)C=CC1c1ccc(OC)cc1 (stereo unspecified)    -30.3

Field: Activity. Fill in for each record below.
1. CCOC(=O)C1=C(C)N(c2ccccc2)C=CC1c1ccccc1[N+](=O)[O-] (stereo unspecified)
2. COC(=O)C1=C(C)N(c2ccccc2)C=C(C)C1c1ccccc1 (stereo unspecified)
3. COC(=O)C1=C(C)N(c2cccc(C)c2C)C=C(C)C1c1ccccc1 (stereo unspecified)
4. COC(=O)C1=C(C)N(c2ccc(OC)cc2)C=C(C)C1c1ccccc1 (stereo unspecified)

1: -25.1; 2: -37.4; 3: -33.1; 4: -28.9

Data origin: ChEMBL document CHEMBL1154745
